Data origin: the supplement of paper PMC6555819

system: PPARa:RXRa (NR concentration 270 nM, RXRa partner concentration 90 nM); assay: PBM binding z-score (relative to random genomic background probes); higher = stronger binding; sequences stand for … in GC…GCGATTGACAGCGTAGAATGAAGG
Use y when the recorded PBM binding z-score is no lower than 2; use n when it is lower.

{"columns": ["SEQ_TEXT", "LABEL_VALUE"],
 "data": [
  ["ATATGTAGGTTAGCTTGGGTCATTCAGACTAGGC", "y"],
  ["CCTTCTGGGCCACGAAAGGTCATTGATTCAGTGA", "y"],
  ["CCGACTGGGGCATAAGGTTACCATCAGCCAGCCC", "n"],
  ["AGAATGAGGTTATTAAGAACAGGGAATTGCGGTC", "y"],
  ["CCTGCTAGGTCAATGGTCTGCTAAAGCAGCTCGC", "y"],
  ["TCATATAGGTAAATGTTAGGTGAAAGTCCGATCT", "n"]
]}

Task: Please indicate if the recorded PBM binding z-score for GGAACGAGGGCAATCGAGTTGATAGCATGGCGAT meets or exceeds 2.
Output: n

Task: Please indicate if the recorded PBM binding z-score for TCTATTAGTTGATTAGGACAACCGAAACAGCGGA meets or exceeds 2.
Output: n

Task: Please indicate if the recorded PBM binding z-score for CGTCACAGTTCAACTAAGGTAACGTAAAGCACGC meets or exceeds 2.
Output: y

Task: Please indicate if the recorded PBM binding z-score for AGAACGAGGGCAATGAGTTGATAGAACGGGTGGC meets or exceeds 2.
Output: n

---

The sequences listed here are annotated with their PBM binding z-score.
system: PPARg:RXRa DBDmut IVT, anti-RXR (DBD mutation: RXRa K156A/R161A, NR concentration 270 nM, RXRa partner concentration 90 nM); assay: PBM binding z-score (relative to random genomic background probes); higher = stronger binding; sequences stand for … in GC…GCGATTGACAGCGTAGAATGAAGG
// no unit string in output, number only

Reference set, count: 2
{"columns": ["SEQ_TEXT", "PBM binding z-score"],
 "data": [
  ["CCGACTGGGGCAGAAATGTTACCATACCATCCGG", 1.57],
  ["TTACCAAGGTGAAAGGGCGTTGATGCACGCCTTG", 1.85]
]}

Task: Can you share its PBM binding z-score? I mean this sequence: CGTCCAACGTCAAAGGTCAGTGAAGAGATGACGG
Output: -0.294

Task: Can you share its PBM binding z-score? I mean this sequence: TCTAGGAGGCCAGAGGGTCACTCAAGAGGTACGG
Output: 1.84

---

tested on: LXRb:RXRa (NR concentration 270 nM, RXRa partner concentration 90 nM); test: PBM binding z-score (relative to random genomic background probes); higher = stronger binding; sequences stand for … in GC…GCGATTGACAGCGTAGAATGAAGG
The sequences listed here are annotated with their PBM binding z-score.
// no unit string in output, number only

Reference set, count: 2
{"columns": ["SEQ_TEXT", "MEASUREMENT_TARGET", "PBM binding z-score"],
 "data": [
  ["GCACGGAGGACAAGGTCAGAGCTTTGTCCGTAGA", "LXRb:RXRa (NR concentration 270 nM, RXRa partner concentration 90 nM)", 1.23],
  ["TCATATAGGTATTACAGGTGAAAGTCGGCATCTA", "LXRb:RXRa (NR concentration 270 nM, RXRa partner concentration 90 nM)", 1.34]
]}

Task: Can you share its PBM binding z-score? I mean this sequence: GCTAGCAGTCCATTTGGGTCACTCAATGACGGGC
Output: -0.0386

Task: Can you share its PBM binding z-score? I mean this sequence: TCTAGTTGGTCACGGAGGTCACACTCGACGGGTA
Output: 3.06

---

system: PPARg DBDmut:RXRa IVT, anti-PPARg (DBD mutation: PPARg1 K132A/R137A, NR concentration 270 nM, RXRa partner concentration 90 nM); test: PBM binding z-score (relative to random genomic background probes); higher = stronger binding; sequences stand for … in GC…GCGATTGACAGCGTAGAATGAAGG
ATTRIBUTE_MEASURED: PBM binding z-score
// no unit string in output, number only

Task: Can you share its PBM binding z-score? I mean this sequence: CCTAGCAGGCCAGGGTCACTCATGCATTTCGCTT
Output: -1.04

Task: Can you share its PBM binding z-score? I mean this sequence: CAAACTAGGTCCAAGGTCAAAGTCGAGCCAACCA
Output: 0.406

Task: Can you share its PBM binding z-score? I mean this sequence: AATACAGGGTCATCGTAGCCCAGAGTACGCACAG
Output: 2.19

Task: Can you share its PBM binding z-score? I mean this sequence: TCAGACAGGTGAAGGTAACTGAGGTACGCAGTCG
Output: 0.121

Task: Can you share its PBM binding z-score? I mean this sequence: AGAACGAGGGCAATGAATTGATAGCACGGGTGGC
Output: 0.112

Task: Can you share its PBM binding z-score? I mean this sequence: TCAGACAGGTGAATGTAACTCAGGTACGCAGTCG
Output: -0.264

---

system: PPARg DBDmut IVT, anti-PPARg (DBD mutation: PPARg1 K132A/R137A, NR concentration 270 nM); assay: PBM binding z-score (relative to random genomic background probes); higher = stronger binding; sequences stand for … in GC…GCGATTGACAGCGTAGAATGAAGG
Use Met when the recorded PBM binding z-score is no lower than -0.04; use Not met when it is lower.

Use the examples below as a reference point.
{"columns": ["SEQ_TEXT", "MEASUREMENT_TARGET", "LABEL_VALUE"],
 "data": [
  ["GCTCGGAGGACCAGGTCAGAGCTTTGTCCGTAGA", "PPARg DBDmut IVT, anti-PPARg (DBD mutation: PPARg1 K132A/R137A, NR concentration 270 nM)", "Not met"],
  ["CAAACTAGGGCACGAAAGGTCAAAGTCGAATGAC", "PPARg DBDmut IVT, anti-PPARg (DBD mutation: PPARg1 K132A/R137A, NR concentration 270 nM)", "Met"],
  ["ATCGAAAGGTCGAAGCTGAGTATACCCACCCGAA", "PPARg DBDmut IVT, anti-PPARg (DBD mutation: PPARg1 K132A/R137A, NR concentration 270 nM)", "Met"]
]}

Task: Please indicate if the recorded PBM binding z-score for TCTAGTAGATCAAAGGTTAAGAAAGCCGAAGCCT meets or exceeds -0.04.
Output: Met

Task: Please indicate if the recorded PBM binding z-score for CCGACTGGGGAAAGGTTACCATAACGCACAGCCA meets or exceeds -0.04.
Output: Not met

Task: Please indicate if the recorded PBM binding z-score for TAGCCTAGGTCATTGGGGCAGTATAGTACGCATC meets or exceeds -0.04.
Output: Met

Task: Please indicate if the recorded PBM binding z-score for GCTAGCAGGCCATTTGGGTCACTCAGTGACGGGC meets or exceeds -0.04.
Output: Not met

---

system: PPARg:RXRa 270nM:90nM, anti-RXR (NR concentration 270 nM, RXRa partner concentration 90 nM); test: PBM binding z-score (relative to random genomic background probes); higher = stronger binding; sequences stand for … in GC…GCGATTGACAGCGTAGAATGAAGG
Measured PBM binding z-score determines class: Low = under 2, Medium = from 2 up to 4, High = 4 and over

{"columns": ["SEQ_TEXT", "LABEL_VALUE"],
 "data": [
  ["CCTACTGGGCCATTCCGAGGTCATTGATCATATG", "Medium"],
  ["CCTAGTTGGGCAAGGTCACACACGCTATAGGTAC", "Medium"]
]}

Task: Place this sequence in its band: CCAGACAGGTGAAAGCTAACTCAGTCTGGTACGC
Output: Low

Task: Place this sequence in its band: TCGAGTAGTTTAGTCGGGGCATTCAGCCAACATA
Output: Low

Task: Place this sequence in its band: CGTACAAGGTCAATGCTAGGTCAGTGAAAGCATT
Output: High

Task: Place this sequence in its band: ATATGTAAGTTATCGGGTCATTCAGTTTGCGCAT
Output: Medium

Task: Place this sequence in its band: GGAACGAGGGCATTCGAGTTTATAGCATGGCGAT
Output: Low

Task: Place this sequence in its band: CCTACTGGGCCATCAGGTCATTGTTATCAACGTT
Output: Medium

Task: Place this sequence in its band: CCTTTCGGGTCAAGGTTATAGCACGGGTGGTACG
Output: High

Task: Place this sequence in its band: GATGCAGGGTCAAGGCCAGAGTACGCGTATTGAT
Output: High
